- ASSAY_SUMMARY: cell viability in Huh7 cells, primary screen, cytotoxicity control for HCV replication inhibitor project, CellTiter-Glo luminescence, basal, 48 h (AID 1143);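 further: Huh7 hepatoma cells carrying a hepatitis C replication reporter with no stimulus; test concentration not given here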
- CONDITION_LABEL: Huh7 HCV replicon, higher = more signal, called active from +8 up or from −8 down
Entries annotated with measured z-score
QUANTITY: z-score

> print(dat)
                                    molecule  quantity  result.value
 1  CC(C)CNC(=O)[C@@]1(c2ccc([N+](=O)[O-])cc2)CC(=O)N(CC23CC4CC(CC(C4)C2)C3)[C@@H]1c1ccc(CO)cc1I   z-score         -4.95
 2  COc1ccc([Si](C)(C)[C@@H]2[C@@H](CCn3cc([C@H](O)c4ccccc4)nn3)O[C@]3(C(=O)N(Cc4cccc(N5CCOC5=O)c4)c4ccccc43)[C@H]2C)cc1   z-score         -1.08
 3  COCC1=C2[C@@H](CCc3ccccc3)OB(O)C[C@@H]2[C@@H]2C(=O)N(Cc3ccccc3)C(=O)[C@@H]2C1   z-score        0.0597
 4  CN1C(=O)C2C(C1=O)C1C=C(CCCO)C2C(c2cccs2)N1C (configuration not stated)   z-score        -0.273
 5  COc1ccc(C(O)C2C=CC3C(=O)NC(=O)C3N2Nc2ccccn2)cc1OCc1ccccc1 (configuration not stated)   z-score         0.716
 6  O=C1C=CC(=O)[C@@H]2CC(COc3ccccc3)=C3[C@@H](CCc4ccccc4)OB(O)C[C@@H]3[C@H]12   z-score         -2.77
 7  CCOC(=O)C1=CCC(C(C)(C)C)N(S(=O)(=O)c2ccc(C)cc2)C1 (configuration not stated)   z-score         -4.52
 8  C=C[C@H](COC(C)=O)N(Cc1ccc(OC(C)=O)c(OC)c1)S(=O)(=O)c1ccc(Br)cc1   z-score         -2.08
 9  CCCCC=C[C@@H](NC(=O)c1ccc(C(=O)OC)cc1)c1ccccc1   z-score         -2.79
10  CCOC(=O)C[C@H]1[C@H](OC(=O)c2ccc(-c3ccccc3)cc2)[C@@H](NC(=O)Cc2ccc(OC)cc2)c2cc(OCCCO)ccc2N1C(=O)c1ccc2ccccc2n1   z-score         0.429
11  CC(=O)NCCCC[C@@H]1NC(=O)[C@H]2C[C@@H](C(=O)NCCCCCC[N+](C)(C)C)[C@@H](c3cccc(OCCO)c3)N2C1=O   z-score         -2.49
12  [N-]=[N+]=NCc1ccccc1C[C@]1(C(=O)O)N=C(c2ccc(OCCCO)cc2)O[C@H]1c1ccccc1   z-score        -0.881
13  NCCCCCCNC(=O)[C@H]1C[C@H]2C(=O)NCC(=O)N2[C@H]1c1cccc(OCCO)c1   z-score        0.0443
14  O=C1N(CCS(=O)(=O)c2ccccc2)Cc2ccccc2C[C@]12N=C(c1ccc(OCCCO)cc1)O[C@@H]2c1ccccc1   z-score         -3.53
15  CN1C=C(C(=O)OCCS(C)(=O)=O)C(C(=O)OCCS(C)(=O)=O)=CC(CCCO)=CC1C1CC1 (configuration not stated)   z-score        -0.134
16  CC(C)NC(=O)[C@@H]1c2ccccc2C(=O)N(Cc2ccccc2)[C@H]1c1ccc(CO)cc1   z-score       -0.0084
17  C=C[C@@H](COC(C)=O)N(Cc1ccc([N+](=O)[O-])cc1)S(=O)(=O)c1ccc(Br)cc1   z-score         -1.97
